# Test system: HepG2
# procedureText: cell viability relative to DMSO; higher = less toxic
# conditionSet: 72 h; 1 nM
reportedMetric: cell viability (%)
Report as a plain number; the unit % is understood.

# molecule, testedTarget, cell viability [%]
records = [
    ("Cc1nccc2c1[nH]c1ccccc12", "HepG2", 92.9),
    ("Oc1ccc2c(c1)CC[C@H](c1ccccc1)[C@@H]2c1ccc(OCCN2CCCC2)cc1", "HepG2", 93.4),
    ("Cc1cccc(N(C)C(=S)Oc2ccc3ccccc3c2)c1 [tolnaftate]", "HepG2", 100),
]

cell viability measured on O=C(NC1(c2ccccc2)CC1)c1c(CN2CCC(N3CCCCC3)CC2)c(-c2cccc(C(F)(F)F)c2)nc2cc(Br)ccc12 = 93.6

cell viability measured on CC(N)CCCC(C)(C)O (stereo not given) = 106
